- EXPERIMENT: PK protocol, intravenous administration
- Format: in vivo, male Sprague Dawley rats
- ASSAY_CONDITIONS: male, Sprague Dawley, plasma, dose 1 mg/kg, rat
Counter-ions that a name gives are not always drawn.
Rule: half-life under 7 h gives False, otherwise True.

>  <MOLECULE>
CC(C)c1cc(F)cc(-c2cccnc2)c1NC(=O)NS(=O)(=O)c1cc(CN(C)C)n(C)n1

>  <LABEL>
False

$$$$

Quick check: does COc1cc(-c2cc(F)cc(C(C)C)c2NC(=O)NS(=O)(=O)c2cc(CN(C)C)n(C)n2)ccn1 have half-life greater than or equal to 7 h?
False

Quick check: does COc1cc(-c2ccc3c(c2NC(=O)NS(=O)(=O)c2ccn(C(C)(C)CN(C)C)n2)CCC3)ccn1 have half-life greater than or equal to 7 h?
False

Quick check: does CC(C)c1cc(F)cc(-c2cccc(C#N)c2)c1NC(=O)NS(=O)(=O)c1cc(CN(C)C)n(C)n1 have half-life greater than or equal to 7 h?
False

Quick check: does CC(C)c1cc(F)cc(-c2cnn(C)c2)c1NC(=O)NS(=O)(=O)c1cc(C(=O)N(C)C)n(C)n1 [Example 34, sodium salt] have half-life greater than or equal to 7 h?
True

Quick check: does COc1cc(-c2ccc3c(c2NC(=O)NS(=O)(=O)c2ccn(C4CC4)n2)CCC3)ccn1 [Example 221, sodium salt] have half-life greater than or equal to 7 h?
True

Ref: patent US20200361895A1
